Entries and their AUC(0-t)
- method-description: Portal vein study: oral PK in PVC/CAC dual cannulated rat
- Type: in vivo
- condition-set: carotid artery plasma, prodrug 10 mg/kg oral, analyte prodrug, read-out: AUC0-2 (nM · h), prodrug, Carotid sampling
Answer with a number only, understood to be in µM·h.

Report AUC(0-t) for CCN(C)C(=O)n1c(=O)n(Cc2ccc(Cl)cc2)c2nc([S@@](=N)(=O)CC)nc(N)c21 please. 0.286

Which AUC(0-t) is listed for CCCN(C)C(=O)n1c(=O)n(Cc2ccc(Cl)cc2)c2nc([S@](=N)(=O)CC)nc(N)c21 ? 0.114

Record request: AUC(0-t) value, item CCCN(C)C(=O)n1c(=O)n(Cc2ccc(C)cc2)c2nc([S@](=N)(=O)CC)nc(N)c21 0.124

Value lookup for AUC(0-t); key = CCCN(C)C(=O)n1c(=O)n(Cc2ccccc2)c2nc(S(=N)(=O)CCC)nc(N)c21 (single isomer, unassigned) 0.04

We next turn to a different compound, shown below.
For CCCN(C)C(=O)n1c(=O)n(Cc2ccc(Cl)cc2)c2nc([S@@](=N)(=O)CC)nc(N)c21 , what is its reported AUC(0-t)? 0.0225

---

- method-description: LYSA solubility study
- Format: physicochemical
- condition-set: aqueous solubility, 0.05M phosphate buffer pH 6.5
LYSA of Prodrugs listing for selected compounds.
The answer is to be given in µg/mL; state only the numeric part.

Quick one: LYSA of Prodrugs for CCN(C)C(=O)n1c(=O)n(Cc2ccc(Br)cc2)c2nc(S(=N)(=O)CC)nc(N)c21 (single isomer, unassigned) [Example 48-B] ? 275

With those in mind, consider the next compound.
Item under review: CCN(C)C(=O)n1c(=O)n(Cc2ccc(Cl)cc2)c2nc([S@@](=N)(=O)CC)nc(N)c21 (stereo in doubt) [Example 42-B] . Reported LYSA of Prodrugs? 335

---

- method-description: Portal vein study: oral PK in PVC/CAC dual cannulated rat
- Type: in vivo
- condition-set: portal vein plasma, prodrug 10 mg/kg oral, analyte prodrug, read-out: AUC0-2 (nM · h), prodrug, Portal sampling
Checkbox rule: AUC(0-t) lower than 2 µM·h = True; AUC(0-t) not lower than 2 µM·h = False.

Please state whether AUC(0-t) is below 2 µM·h for CCN(C)C(=O)n1c(=O)n(Cc2ccc(Cl)cc2)c2nc([S@@](=N)(=O)CC)nc(N)c21 [Example 42-A] False

Next:
Decide: AUC(0-t) of CCCN(C)C(=O)n1c(=O)n(Cc2ccc(Cl)cc2)c2nc([S@@](=N)(=O)CC)nc(N)c21 [Example 41-B] strictly below 2 µM·h? True

Regarding CCCN(C)C(=O)n1c(=O)n(Cc2ccccc2)c2nc(S(=N)(=O)CCC)nc(N)c21 (single isomer, unassigned) [Example 1-B] , kindly confirm whether its AUC(0-t) is beneath 2 µM·h. True

Lab note: confirm whether the reported AUC(0-t) for this compound is below 2 µM·h, equality not counting. compound: CCCN(C)C(=O)n1c(=O)n(Cc2ccc(C)cc2)c2nc([S@](=N)(=O)CC)nc(N)c21 [Example 43-A] False

A record lists CCCN(C)C(=O)n1c(=O)n(Cc2ccc(Cl)cc2)c2nc([S@](=N)(=O)CC)nc(N)c21 [Example 41-A] . Is its AUC(0-t) below 2 µM·h? False

---

- method-description: Single dose PK study in male Wister-Han rats
- Format: in vivo
- condition-set: male, Wister-Han, rat, plasma, po, 5 mg/kg, 5 mg/kg oral dosing of active form, 8 h
- Protocol: The single dose PK in Male Wister-Han Rats was performed to assess pharmacokinetic properties of tested compounds. Two groups of animals were dosed via Gavage (POE) of the respective compound. […] The pharmacokinetic parameters were calculated using non-compartmental module of WinNonlin® Professional 6.2. The peak concentration (Cmax) was recorded directly from experimental observations. […]
attribute-measured: concentration at 8 h (nM)
Quick note: give the figure in nM, leave out the unit.

Example compounds with recorded concentration at 8 h:
I'd like to know its concentration at 8 h. The compound in question is CCS(=N)(=O)c1nc(N)c2[nH]c(=O)n(Cc3ccc(F)cc3)c2n1 (single isomer, unassigned) [Compound 45e-A] 34.6

Which value of concentration at 8 h has been reported for CCS(=O)(=O)c1nc(N)c2[nH]c(=O)n(Cc3ccc(C)cc3)c2n1 [Example S-3, reference compound] in the records? 8.17

Report concentration at 8 h for CCS(=O)(=O)c1nc(N)c2[nH]c(=O)n(Cc3ccc(Cl)cc3)c2n1 [Example S-2, reference compound] please. 52.7

Proceed to the following item.
Given CCCCOc1nc(N)c2c(n1)N(Cc1cccc(CN3CCCC3)c1)CC(=O)N2 [GS9620, reference compound] , state its recorded concentration at 8 h. 9.49

---

- method-description: Portal vein study: oral PK in PVC/CAC dual cannulated rat
- Type: in vivo
- condition-set: carotid artery plasma, prodrug 10 mg/kg oral, analyte prodrug, read-out: Cmax (nM), prodrug, Carotid sampling
A collection of molecules and their measured Cmax
Be sure to follow the number with its unit.

Example cases with answers are listed next.
Sample CCN(C)C(=O)n1c(=O)n(Cc2ccc(Cl)cc2)c2nc([S@@](=N)(=O)CC)nc(N)c21 — what was its Cmax? 286 nM

Form field: reported Cmax of CCCN(C)C(=O)n1c(=O)n(Cc2ccccc2)c2nc(S(=N)(=O)CCC)nc(N)c21 (single isomer, unassigned) 70 nM

// lookup Cmax for CCCN(C)C(=O)n1c(=O)n(Cc2ccc(Cl)cc2)c2nc([S@](=N)(=O)CC)nc(N)c21 210 nM

Item under review: CCCN(C)C(=O)n1c(=O)n(Cc2ccc(Cl)cc2)c2nc([S@@](=N)(=O)CC)nc(N)c21 . Reported Cmax? 29.6 nM

Kindly consider the entry below.
Could you share which Cmax value was measured for CCCN(C)C(=O)n1c(=O)n(Cc2ccc(C)cc2)c2nc([S@](=N)(=O)CC)nc(N)c21 ? 191 nM

---

- measurement-target: UniProtKB Q9NYK1
- Sequence (Q9NYK1 27-1049): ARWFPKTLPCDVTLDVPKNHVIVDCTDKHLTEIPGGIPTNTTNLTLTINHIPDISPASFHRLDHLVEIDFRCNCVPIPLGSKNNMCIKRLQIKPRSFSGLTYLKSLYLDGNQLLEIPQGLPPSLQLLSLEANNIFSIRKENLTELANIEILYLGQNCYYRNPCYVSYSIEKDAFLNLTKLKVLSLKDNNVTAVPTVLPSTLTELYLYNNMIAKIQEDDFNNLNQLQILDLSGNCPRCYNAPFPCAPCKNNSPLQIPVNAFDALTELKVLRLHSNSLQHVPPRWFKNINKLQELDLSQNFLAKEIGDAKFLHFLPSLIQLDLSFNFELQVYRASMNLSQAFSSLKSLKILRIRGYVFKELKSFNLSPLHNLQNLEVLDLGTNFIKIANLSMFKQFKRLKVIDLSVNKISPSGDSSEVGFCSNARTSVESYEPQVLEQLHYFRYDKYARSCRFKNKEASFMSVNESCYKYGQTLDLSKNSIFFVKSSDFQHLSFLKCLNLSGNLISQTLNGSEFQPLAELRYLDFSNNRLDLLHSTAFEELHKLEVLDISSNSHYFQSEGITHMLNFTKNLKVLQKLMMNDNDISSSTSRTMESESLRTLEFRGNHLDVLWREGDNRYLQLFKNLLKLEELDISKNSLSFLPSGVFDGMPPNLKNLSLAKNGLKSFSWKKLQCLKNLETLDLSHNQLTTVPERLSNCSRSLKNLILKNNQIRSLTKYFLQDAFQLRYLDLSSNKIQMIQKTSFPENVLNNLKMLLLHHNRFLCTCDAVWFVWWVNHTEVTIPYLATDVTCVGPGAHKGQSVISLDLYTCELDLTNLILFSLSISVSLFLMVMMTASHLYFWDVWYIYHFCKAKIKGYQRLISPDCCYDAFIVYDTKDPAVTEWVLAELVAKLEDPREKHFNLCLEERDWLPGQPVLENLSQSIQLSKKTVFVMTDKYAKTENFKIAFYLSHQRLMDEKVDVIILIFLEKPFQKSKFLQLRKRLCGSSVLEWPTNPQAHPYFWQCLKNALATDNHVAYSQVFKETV
- method-description: HEK293-Blue-hTLR-7 cells assay (SEAP reporter)
- Type: cell-based
- condition-set: EC50 of prodrug over EC50 of corresponding active form
attribute-measured: Ratio (EC50(prodrug)/EC50(active form))

Report Ratio (EC50(prodrug)/EC50(active form)) for CCCN(C)C(=O)n1c(=O)n(Cc2ccc(Cl)cc2)c2nc(S(=N)(=O)CC)nc(N)c21 (centres unmarked) tested on UniProtKB Q9NYK1. 679.2

State its Ratio (EC50(prodrug)/EC50(active form)) on UniProtKB Q9NYK1: CCCN(C)C(=O)n1c(=O)n(Cc2ccc(C)cc2)c2nc([S@@](=N)(=O)CCC)nc(N)c21 1673.7

What Ratio (EC50(prodrug)/EC50(active form)) appears in the records for this compound with UniProtKB Q9NYK1? CCCS(=N)(=O)c1nc(N)c2c(n1)n(Cc1ccccc1)c(=O)n2C(=O)N(C)CCN(C)C(C)=O (centres unmarked) 372.3

What value of Ratio (EC50(prodrug)/EC50(active form)) on UniProtKB Q9NYK1 does CCCS(=N)(=O)c1nc(N)c2c(n1)n(Cc1ccccc1)c(=O)n2C(=O)N(C)CCC(=O)OCC (centres unmarked) have? 7600

Notebook: pull reported Ratio (EC50(prodrug)/EC50(active form)) for UniProtKB Q9NYK1, entry CCCS(=N)(=O)c1nc(N)c2c(n1)n(Cc1ccccc1)c(=O)n2C(=O)N(C)C(C)C (centres unmarked) 1053.8

Form: Entry = CCN(C)C(=O)n1c(=O)n(Cc2ccc(Cl)cc2)c2nc([S@@](=N)(=O)CC)nc(N)c21 (stereo in doubt) [Example 42-B] | System = UniProtKB Q9NYK1 | Ratio (EC50(prodrug)/EC50(active form)) = ____ 578.8
